Test system: PC9
Experiment: AKT reporter activity score (signed KS statistic vs DMSO) (signed KS statistic (-1 to 1)); higher = stronger activation of the pathway reporter relative to DMSO
Settings: 0.5 µM; time after treatment 48 h; PC9 signalome
Endpoint label: AKT reporter activity score
// return a plain number; no unit text

Example entries and their recorded answers appear below.
> print(dat)
                                   molecule  result
1  Cn1cnc2c(F)c(Nc3ccc(Br)cc3Cl)c(C(=O)NOCCO)cc21 [AZD6244 (Selumetinib)]   0.282
2  COc1ccc(-c2ccc3c(N4CCOCC4)nc(N4C[C@@H](C)O[C@@H](C)C4)nc3n2)cc1CO  -0.124
3  Cc1c(NC(=O)OC[C@@H]2COCCN2)cn2ncnc(Nc3ccc4c(cnn4Cc4cccc(F)c4)c3)c12  -0.228
4  CN1CCN(c2nc(C3=C(c4c[nH]c5ccccc45)C(=O)NC3=O)c3ccccc3n2)CC1   0.195
5  C#CCC(Cc1cnc2nc(N)nc(N)c2n1)c1ccc(C(=O)N[C@@H](CCC(=O)O)C(=O)O)cc1 (some centres not stated) [Pralatrexate(Folotyn)]  -0.334

Reported AKT reporter activity score, molecule C=CC(=O)N1CCC[C@@H](n2nc(-c3ccc(Oc4ccccc4)cc3)c3c(N)ncnc32)C1 : ____
-0.461

Reported AKT reporter activity score, molecule CC(C)NC[C@@H](C(=O)N1CCN(c2ncnc3c2[C@H](C)C[C@H]3O)CC1)c1ccc(Cl)cc1 : ____
-0.688

---

Tested on: PC9
Test: YAP/TAZ reporter activity score (signed KS statistic vs DMSO) (signed KS statistic (-1 to 1)); higher = stronger activation of the pathway reporter relative to DMSO
Settings: 0.5 µM; time after treatment 48 h; PC9 signalome
Endpoint label: YAP/TAZ reporter activity score

Compound	YAP/TAZ reporter activity score
O=C(NCCCNc1nc(Nc2cccc(NC(=O)N3CCCC3)c2)ncc1I)c1cccs1	-0.0931

Reported YAP/TAZ reporter activity score, compound CCN1CCN(Cc2ccc(-c3cc4c(N[C@H](C)c5ccccc5)ncnc4[nH]3)cc2)CC1 : ____
0.381

Reported YAP/TAZ reporter activity score, compound O=C(NOC[C@H](O)CO)c1ccc(F)c(F)c1Nc1ccc(I)cc1F : ____
0.42

Reported YAP/TAZ reporter activity score, compound CO[C@H]1C[C@@H]2CC[C@@H](C)[C@@](O)(O2)C(=O)C(=O)N2CCCC[C@H]2C(=O)O[C@H]([C@H](C)C[C@@H]2CC[C@@H](O)[C@H](OC)C2)CC(=O)[C@H](C)/C=C(\C)[C@@H](O)[C@@H](OC)C(=O)[C@H](C)C[C@H](C)/C=C/C=C/C=C/1C [Rapamycin (Sirolimus)] : ____
0.12

---

Tested on: PC9
Experiment: RAR reporter activity score (signed KS statistic vs DMSO) (signed KS statistic (-1 to 1)); higher = stronger activation of the pathway reporter relative to DMSO
Conditions: 0.5 µM; time after treatment 48 h; PC9 signalome
Listed here: items and their measured RAR reporter activity score.
// return a plain number; no unit text

Example entries and their recorded answers appear below.
> print(dat)
                         chemical.structure               endpoint.label  result
1  Cc1c(NC(=O)OC[C@@H]2COCCN2)cn2ncnc(Nc3ccc4c(cnn4Cc4cccc(F)c4)c3)c12  RAR reporter activity score   0.182
2  COc1cc2ncnc(Nc3ccc(F)c(Cl)c3)c2cc1OCCCN1CCOCC1  RAR reporter activity score     0.5
3  CCN1CCN(Cc2ccc(-c3cc4c(N[C@H](C)c5ccccc5)ncnc4[nH]3)cc2)CC1  RAR reporter activity score   0.505
4  Cc1cc(C(=O)NOCCO)c(Nc2ccc(I)cc2F)n(C)c1=O  RAR reporter activity score   0.337

Lab note: next compound to report on.
Reported RAR reporter activity score, compound CC(C)n1nc(-c2cc3cc(O)ccc3[nH]2)c2c(N)ncnc21 : ____
-0.222

---

Test system: PC9
Assay: p38 reporter activity score (signed KS statistic vs DMSO) (signed KS statistic (-1 to 1)); higher = stronger activation of the pathway reporter relative to DMSO
Details: 0.5 µM; time after treatment 48 h; PC9 signalome
Listed here: items and their measured p38 reporter activity score.
// return a plain number; no unit text

Reported p38 reporter activity score, compound COc1ncc(-c2ccc3nccc(-c4ccnnc4)c3c2)cc1NS(=O)(=O)c1ccc(F)cc1F : ____
-0.499

Reported p38 reporter activity score, compound C=CC(=O)Nc1cccc(Sc2nc(Nc3ccc(N4CCN(C)CC4)cc3)ncc2Cl)c1 : ____
-0.318

Reported p38 reporter activity score, compound O=C(Nc1cc(C(F)(F)F)cc(C(F)(F)F)c1)c1cc(Cl)ccc1O : ____
0.0561

Reported p38 reporter activity score, compound CC(C)n1nc(-c2cc3cc(O)ccc3[nH]2)c2c(N)ncnc21 : ____
0.0578

Reported p38 reporter activity score, compound CCN1CCN(Cc2ccc(Nc3ncc(F)c(-c4cc(F)c5nc(C)n(C(C)C)c5c4)n3)nc2)CC1 : ____
-0.118

Reported p38 reporter activity score, compound CO[C@H]1C[C@@H]2CC[C@@H](C)[C@@](O)(O2)C(=O)C(=O)N2CCCC[C@H]2C(=O)O[C@H]([C@H](C)C[C@@H]2CC[C@@H](O)[C@H](OC)C2)CC(=O)[C@H](C)/C=C(\C)[C@@H](O)[C@@H](OC)C(=O)[C@H](C)C[C@H](C)/C=C/C=C/C=C/1C [Rapamycin (Sirolimus)] : ____
-0.0405

---

System: PC9
Test: HIF reporter activity score (signed KS statistic vs DMSO) (signed KS statistic (-1 to 1)); higher = stronger activation of the pathway reporter relative to DMSO
Conditions: 0.5 µM; time after treatment 48 h; PC9 signalome
Endpoint label: HIF reporter activity score

Example entries and their recorded answers appear below.
Chemical structure	Tested system	HIF reporter activity score
CC(C)n1nc(-c2ccc3oc(N)nc3c2)c2c(N)ncnc21	PC9	-0.124
COc1ccc(-c2cc3c(C)nc(N)nc3n([C@H]3CC[C@H](OCCO)CC3)c2=O)cn1	PC9	-0.153

Reported HIF reporter activity score, compound CC(=O)Nc1cccc(-n2c(=O)n(C3CC3)c(=O)c3c(Nc4ccc(I)cc4F)n(C)c(=O)c(C)c32)c1 : ____
-0.114

Reported HIF reporter activity score, compound C[C@@H](Oc1cc(-n2cnc3ccc(CN4CCN(C)CC4)cc32)sc1C(N)=O)c1ccccc1C(F)(F)F : ____
0.347

Reported HIF reporter activity score, compound CO[C@H]1C[C@@H]2CC[C@@H](C)[C@@](O)(O2)C(=O)C(=O)N2CCCC[C@H]2C(=O)O[C@H]([C@H](C)C[C@@H]2CC[C@@H](OP(C)(C)=O)[C@H](OC)C2)CC(=O)[C@H](C)/C=C(\C)[C@@H](O)[C@@H](OC)C(=O)[C@H](C)C[C@H](C)/C=C/C=C/C=C/1C : ____
-0.232

Reported HIF reporter activity score, compound COc1ccc(-c2ccc3c(N4CCOC[C@@H]4C)nc(N4CCOC[C@@H]4C)nc3n2)cc1CO : ____
-0.151

Reported HIF reporter activity score, compound CCn1c(-c2nonc2N)nc2c(C#CC(C)(C)O)ncc(OC[C@H]3CCCNC3)c21 : ____
-0.224

---

Listed here: items and their measured WNT reporter activity score.
Test system: PC9
Assay: WNT reporter activity score (signed KS statistic vs DMSO) (signed KS statistic (-1 to 1)); higher = stronger activation of the pathway reporter relative to DMSO
Settings: 0.5 µM; time after treatment 48 h; PC9 signalome
// return a plain number; no unit text

Example entries and their recorded answers appear below.
Compound	Tested system	Endpoint label	Result
Cc1ccc([N+](=O)[O-])cc1S(=O)(=O)N(C)/N=C/c1cnc2ccc(Br)cn12	PC9	WNT reporter activity score	0.207
CCN1CCN(Cc2ccc(-c3cc4c(N[C@H](C)c5ccccc5)ncnc4[nH]3)cc2)CC1	PC9	WNT reporter activity score	0.184
O=C(/C=C/c1cccc(S(=O)(=O)Nc2ccccc2)c1)NO	PC9	WNT reporter activity score	0.155
C=CC(=O)Nc1cccc(Oc2nc(Nc3ccc(N4CCN(C)CC4)cc3)ncc2Cl)c1	PC9	WNT reporter activity score	0.124
COc1ccc(-c2ccc3c(N4CCOC[C@@H]4C)nc(N4CCOC[C@@H]4C)nc3n2)cc1CO	PC9	WNT reporter activity score	0.13

Reported WNT reporter activity score, compound C[C@H](NC(=O)Cc1cc(F)cc(F)c1)C(=O)N[C@@H]1C(=O)N(C)c2ccccc2-c2ccccc21 : ____
-0.0477

---

System: PC9
Assay: HIF reporter activity score (signed KS statistic vs DMSO) (signed KS statistic (-1 to 1)); higher = stronger activation of the pathway reporter relative to DMSO
Conditions: 0.5 µM; time after treatment 48 h; PC9 signalome
Structures can show the parent of a compound that is named as a salt.
Listed here: items and their measured HIF reporter activity score.
// return a plain number; no unit text

Example entries and their recorded answers appear below.
> print(dat)
                                   compound               endpoint.label  result
1  Cc1ccc(C(=O)N(CCCN)[C@@H](c2oc3cc(Cl)ccc3c(=O)c2Cc2ccccc2)C(C)C)cc1  HIF reporter activity score   0.473
2  CC(C)NC[C@@H](C(=O)N1CCN(c2ncnc3c2[C@H](C)C[C@H]3O)CC1)c1ccc(Cl)cc1 [Ipatasertib (GDC-0068)]  HIF reporter activity score  -0.228
3  CC(C)n1nc(-c2cc3cc(O)ccc3[nH]2)c2c(N)ncnc21  HIF reporter activity score  -0.329
4  O=C(Nc1cc(C(F)(F)F)cc(C(F)(F)F)c1)c1cc(Cl)ccc1O  HIF reporter activity score   0.485

Reported HIF reporter activity score, compound Cn1cnc2c(F)c(Nc3ccc(Br)cc3Cl)c(C(=O)NOCCO)cc21 [AZD6244 (Selumetinib)] : ____
-0.125

Reported HIF reporter activity score, compound O=C(NOC[C@H](O)CO)c1ccc(F)c(F)c1Nc1ccc(I)cc1F : ____
-0.129

Reported HIF reporter activity score, compound CN1CC[C@H](c2c(O)cc(O)c3c(=O)cc(-c4ccccc4Cl)oc23)[C@H](O)C1 [Flavopiridol hydrochloride] : ____
0.353

Reported HIF reporter activity score, compound Cc1nc(NC(=O)N2CCC[C@H]2C(N)=O)sc1-c1ccnc(C(C)(C)C(F)(F)F)c1 [Alpelisib (BYL719)] : ____
-0.123

Reported HIF reporter activity score, compound CN(C)C/C=C/C(=O)Nc1cc2c(Nc3ccc(F)c(Cl)c3)ncnc2cc1O[C@H]1CCOC1 [Afatinib (BIBW2992)] : ____
0.0949

Reported HIF reporter activity score, compound CN1CCN(c2nc(C3=C(c4c[nH]c5ccccc45)C(=O)NC3=O)c3ccccc3n2)CC1 [Sotrastaurin (AEB071)] : ____
0.0348

Reported HIF reporter activity score, compound C=CC(=O)Nc1cccc(Sc2nc(Nc3ccc(N4CCN(C)CC4)cc3)ncc2Cl)c1 : ____
0.106

Reported HIF reporter activity score, compound C=CC(=O)N1CCC[C@@H](n2nc(-c3ccc(Oc4ccccc4)cc3)c3c(N)ncnc32)C1 : ____
0.169

Reported HIF reporter activity score, compound CCN(CC)CCNC(=O)c1c(C)[nH]c(/C=C2\C(=O)Nc3ccc(F)cc32)c1C [Sunitinib Malate (Sutent)] : ____
-0.147

Reported HIF reporter activity score, compound C=CC(=O)Nc1ccc2ncnc(Nc3cccc(Br)c3)c2c1 : ____
0.234

Reported HIF reporter activity score, compound Nc1ncnc2c1c(-c1cnc3[nH]ccc3c1)nn2C1CCCC1 : ____
0.183
